- Tested on: ACHN renal
- test_method_notes: NCI-60 one-dose screen, 48 h
- protocol_conditions: 10 µM unless noted
Compounds without any hit were thinned out: in the full panel of roughly 83,000, 20% have a hit. Active and inactive are the calls of the source. The calls were made as follows: active = growth percent below 10; inactive = the rest.
Classes used: active, inactive

>>> label("CN(C)c1ccc(-c2c(NC(C)(C)C)nc3c(OCCc4ccccc4)cccn23)cc1")
"inactive"
>>> label("COc1ccc(/C=N/Nc2ccnc3cc(Cl)ccc23)cc1Cl")
"active"
>>> label("N#Cc1c(-c2ccc(Cl)cc2)nc2c(-c3ccccc3)c(Nc3ccccc3)nn2c1N")
"inactive"
>>> label("COC(=O)C1CCCN(S(=O)(=O)/N=C2\\NC(=O)NC2=C(Cl)Cl)C1 (stereo unspecified)")
"inactive"
>>> label("N#Cc1nc(-c2ccccc2)oc1S(=O)(=O)N1CCCCC1")
"active"
>>> label("COc1cc(-c2ccc3ncnc(NC(C)c4ccccc4)c3c2)cnc1OC (stereo unspecified)")
"inactive"

###

- System: M14 melanoma
- test_method_notes: NCI-60 one-dose screen, 48 h (100 = growth as untreated, 0 = no growth, -100 = all killed)
- protocol_conditions: 10 µM unless noted
This is part of a sample that, as a whole, favours compounds with a hit. Of some 83,000 tested, about 20% had one in any assay.
Recorded measurements of growth, one per entry
attribute_measured: growth (%)

>>> measured_value("CNC(=O)c1cc(-c2ccc(NC(=O)Nc3ccc(N4CCOCC4)c(C(F)(F)F)c3)cc2)nc2cccnc12")
77.2
>>> measured_value("CCN(CC)c1ccc(C=O)c(OCc2cn(CC(=O)Nc3ccc(Cl)cc3)nn2)c1")
87.7
>>> measured_value("O=C(CCCN1C(=O)/C(=C/c2ccccc2F)SC1=S)N1CCOCC1")
77.6
>>> measured_value("Clc1ccc2oc3c(OCCCn4ccnc4)c4ccccc4nc3c2c1")
93.6
>>> measured_value("COC(=O)C1CCCN(S(=O)(=O)/N=C2\\NC(=O)NC2=C(Cl)Cl)C1 (centres undefined)")
99.3
>>> measured_value("C[C@@H]1CN(c2ccc3ncc(C#Cc4cncc(C(=O)Nc5ccc(CN6CCN(C)CC6)c(C(F)(F)F)c5)c4)n3n2)C[C@H](C)O1")
-76.3
>>> measured_value("N=C1CC(=O)NN1C(=O)CSc1nc2sc3c(c2c(=O)n1-c1ccc(Cl)cc1)CCCC3")
99.3
>>> measured_value("COc1cc(/C=C/C(=O)c2ccc(F)cc2)ccc1Oc1nc(NCCO)nc(N2CCOCC2)n1")
84
>>> measured_value("O=C1NC(=C(Cl)Cl)/C(=N/S(=O)(=O)N2CCCCC2CC2(C(F)(F)F)N=N2)N1 (centres undefined)")
24.4
>>> measured_value("O=C(CSc1nc2sc3c(c2c(=O)n1-c1ccc(Cl)cc1)CCCC3)NNC(=O)Nc1ccc(Cl)c(C(F)(F)F)c1")
44
>>> measured_value("Cc1ccccc1NC(=O)/C=C/c1ccc(OCCOc2ccc3c(C)cc(=O)oc3c2)cc1")
98.2
>>> measured_value("CCOC(=O)c1sc(N)c(C(=O)OCC)c1C")
78
>>> measured_value("O=C1[C@H]2Cc3c([nH]c4ccccc34)[C@@H](c3ccc(Br)cc3)N2C(=O)CN1C1CCN(Cc2ccccc2)CC1")
35.8
>>> measured_value("Cc1cc2nc3c4cc(Cl)ccc4n(CC(=O)NCCN(C)C)c3nc2cc1C")
-88.7
>>> measured_value("C#Cc1nc(C2=C(C)/C(=N/OCc3ccccc3)CC2)cs1")
75.4
>>> measured_value("Cn1cc(-c2cc(N)n3nc(-c4cn(C)c5ccc(Cl)cc45)cc3n2)c2cc(Cl)ccc21")
53.4
>>> measured_value("COc1ccc(/C=C/C(=O)c2ccc(NC(=O)CSc3nnc(-c4ccc5nc(-c6ccc(Cl)cc6)[nH]c5c4)o3)cc2)cc1")
106
>>> measured_value("Clc1ccc2oc3c(NCCCN4CCOCC4)c4ccccc4nc3c2c1")
31.8
>>> measured_value("COc1ccc(C(=O)/C=C/c2ccc(OCc3ccc(Cl)cc3)c(OC)c2)cc1OC")
78.1

Cited source: PubChem BioAssay (NCI)
